Ref: patent US11161856B2

# measured-on: MAGL (Homo sapiens, UniProt Q99685)
# Construct: Proteomes (human prefrontal cortex or cell membrane fractions); from tissue
# Sequence (Q99685 1-303): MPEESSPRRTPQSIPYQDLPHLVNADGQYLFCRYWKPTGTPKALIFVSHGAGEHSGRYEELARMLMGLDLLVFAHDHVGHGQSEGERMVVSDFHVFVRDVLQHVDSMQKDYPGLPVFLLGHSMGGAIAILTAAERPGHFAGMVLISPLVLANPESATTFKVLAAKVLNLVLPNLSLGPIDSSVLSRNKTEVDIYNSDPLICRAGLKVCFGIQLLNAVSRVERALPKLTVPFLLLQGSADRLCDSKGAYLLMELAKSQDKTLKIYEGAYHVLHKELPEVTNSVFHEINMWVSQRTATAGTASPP
# assay-summary: In vitro competitive activity-based protein profiling (FP-Rh or HT-01 probe, gel-based)
# Assay type: biochemical
# applied-conditions: prefrontal cortex (PFC) proteome, concentration not given (μM)
parameter-measured: % Inh MGLL PFC (Human, μM)

Please review the following examples before continuing.
What the record says about CN(Cc1ccc(C(F)(F)F)cc1-c1nnn[nH]1)C1(C)CCN(C(=O)OC(C(F)(F)F)C(F)(F)F)CC1 : % Inh MGLL PFC (Human, μM) is ### (### is ≥75%)

What the record says about O=C(O)CN1CC2CN(c3cc(C(F)(F)F)ccc3CN3CCCC34CCN(C(=O)OC(C(F)(F)F)C(F)(F)F)CC4)CC2C1 (stereo not drawn) : % Inh MGLL PFC (Human, μM) is ### (### is ≥75%)

What the record says about CC1(C(=O)O)CCN(c2cc(CN3CC4(CCN(C(=O)OC(C(F)(F)F)C(F)(F)F)CC4)C3)cc(C(F)(F)F)c2)C1 (stereo not drawn) : % Inh MGLL PFC (Human, μM) is ### (### is ≥75%)

What the record says about O=C(O)C1CCN(c2cc(C(F)(F)F)ccc2CN2CC3(CCN(C(=O)OC(C(F)(F)F)C(F)(F)F)CC3)C2)CC1 : % Inh MGLL PFC (Human, μM) is ### (### is ≥75%)

What the record says about O=C(O)CN1CC2(CCN(c3cc(C(F)(F)F)ccc3CN3CCCC34CCN(C(=O)OC(C(F)(F)F)C(F)(F)F)CC4)CC2)C1 : % Inh MGLL PFC (Human, μM) is ### (### is ≥75%)

Next:
What the record says about O=C(O)C1CCN(c2ccc(CN3CCC4(CC3)CCN(C(=O)OC(C(F)(F)F)C(F)(F)F)C4)cc2C(F)(F)F)CC1 : % Inh MGLL PFC (Human, μM) is ### (### is ≥75%)
